Parameter: inhibition at 10 µg/mL. Scope: all listed entries.
Test system: collagen aggregation of platelets
Experiment: Depression on Blood Platelet Aggregation, collagen
Type: cell-based, Wister male rat
Conditions: in vitro, rat platelet plasma, final conc. 10 μg/ml; read-out: depression Ratio to Collagen
quantity measured: inhibition at 10 µg/mL (%)

compound="CCOC(=O)C1=C[C@]2(CC)CCCN3CCc4c(n1c1ccccc41)[C@@H]32 [vinpocetine, reference compound]" quantity_measured="inhibition at 10 µg/mL" reported_result=4
compound="CC[C@]12CCCN3CCc4c(n(c5ccccc45)C(=NOCC(O)CN4CCN(c5ccccc5OC)CC4)C1)[C@@H]32 (stereo partly drawn)" quantity_measured="inhibition at 10 µg/mL" reported_result=9.5
compound=CC[C@]12CCCN3CCc4c(n(c5ccccc45)C(=NOCCN(C)C)C1)[C@@H]32 quantity_measured="inhibition at 10 µg/mL" reported_result=3.2
compound="CC[C@]12CCCN3CCc4c(n(c5ccccc45)C(=NO)C1)[C@@H]32 [Reference Example, (3α,16α)-eburnamenin-14(15H)-one oxime]" quantity_measured="inhibition at 10 µg/mL" reported_result=5.4
compound=CC[C@]12CCCN3CCc4c(n(c5ccccc45)C(=NOCCN4CCCC4)C1)[C@@H]32 quantity_measured="inhibition at 10 µg/mL" reported_result=4.4
compound=CC[C@]12CCCN3CCc4c(n(c5ccccc45)C(=NOCCN4CCN(c5ccccc5OC)CC4)C1)[C@@H]32 quantity_measured="inhibition at 10 µg/mL" reported_result=9.3
